test system: Proteus mirabilis; assay: Antibacterial activity against Proteus mirabilis at 25 ug/ml after 24 hrs agar diffusion method; type: functional; settings: read-out: DIZ
reported.property: zone of inhibition at 25 µg/mL (mm)

CCOC(=O)[C@@H]1[C@@H]([C@H]2[C@@H](c3ccccc3)C(=O)N2c2ccc(OC)cc2)C2CCCN2[C@]12C(=O)Nc1ccccc12 (stereo partly specified) | 14
CCOC(=O)[C@@H]1[C@@H]([C@H]2[C@@H](Oc3ccccc3)C(=O)N2c2ccc(OC)cc2)CN(C)[C@@]12C(=O)c1cccc3cccc2c13 | 9
CCOC(=O)[C@@H]1[C@@H]([C@H]2[C@@H](Oc3ccccc3)C(=O)N2c2ccc(OC)cc2)C2CCCN2C12C(=O)c1ccccc1C2=O (stereo partly specified) | 8
CCOC(=O)[C@@H]1[C@@H]([C@H]2[C@@H](Oc3ccccc3)C(=O)N2c2ccc(OC)cc2)CN(C)C12C(=O)c1ccccc1C2=O | 9
CCOC(=O)[C@@H]1[C@@H]([C@H]2[C@@H](c3ccccc3)C(=O)N2c2ccc(OC)cc2)CN(C)[C@]12C(=O)Nc1ccccc12 | 11
CCOC(=O)[C@@H]1[C@@H]([C@H]2[C@@H](Oc3ccccc3)C(=O)N2c2ccc(OC)cc2)C2CCCN2[C@]12C(=O)Nc1ccccc12 (stereo partly specified) | 12

###

system: Staphylococcus aureus; experiment: Antibacterial activity against Staphylococcus aureus at 50 ug/ml after 24 hrs agar diffusion method; assay type: functional; settings: read-out: DIZ
reported.property: zone of inhibition at 50 µg/mL (mm)

CCOC(=O)[C@@H]1[C@@H]([C@H]2[C@@H](c3ccccc3)C(=O)N2c2ccc(OC)cc2)C2CCCN2C12C(=O)c1ccccc1C2=O (stereo not given in full) | 13
CCOC(=O)[C@@H]1[C@@H]([C@H]2[C@@H](Oc3ccccc3)C(=O)N2c2ccc(OC)cc2)C2CCCN2[C@]12C(=O)Nc1ccccc12 (stereo not given in full) | 18
CCOC(=O)[C@@H]1[C@@H]([C@H]2[C@@H](c3ccccc3)C(=O)N2c2ccc(OC)cc2)C2CCCN2[C@@]12C(=O)c1cccc3cccc2c13 (stereo not given in full) | 14
CN(C)[C@@H]1C(O)=C(C(N)=O)C(=O)[C@@]2(O)C(O)=C3C(=O)c4c(O)cccc4[C@@](C)(O)[C@H]3C[C@@H]12 | 22
CCOC(=O)[C@@H]1[C@@H]([C@H]2[C@@H](Oc3ccccc3)C(=O)N2c2ccc(OC)cc2)C2CCCN2C12C(=O)c1ccccc1C2=O (stereo not given in full) | 14
CCOC(=O)[C@@H]1[C@@H]([C@H]2[C@@H](c3ccccc3)C(=O)N2c2ccc(OC)cc2)CN(C)C12C(=O)c1ccccc1C2=O | 15
CCOC(=O)[C@@H]1[C@@H]([C@H]2[C@@H](Oc3ccccc3)C(=O)N2c2ccc(OC)cc2)C2CCCN2[C@@]12C(=O)c1cccc3cccc2c13 (stereo not given in full) | 11
CCOC(=O)[C@@H]1[C@@H]([C@H]2[C@@H](Oc3ccccc3)C(=O)N2c2ccc(OC)cc2)CN(C)C12C(=O)c1ccccc1C2=O | 13
CCOC(=O)[C@@H]1[C@@H]([C@H]2[C@@H](c3ccccc3)C(=O)N2c2ccc(OC)cc2)CN(C)[C@]12C(=O)Nc1ccccc12 | 18
CCOC(=O)[C@@H]1[C@@H]([C@H]2[C@@H](Oc3ccccc3)C(=O)N2c2ccc(OC)cc2)CN(C)[C@]12C(=O)Nc1ccccc12 | 19
